All figures here come from the MegaScale stability set (Tsuboyama et al. 2023).

Can you tell me folding stability dG for the items I'm about to list?
B1: 2K2A (parent)
chain: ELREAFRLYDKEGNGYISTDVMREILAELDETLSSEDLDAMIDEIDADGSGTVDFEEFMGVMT

# Variants of: B1
# assayNotes: folding stability dG (cDNA display proteolysis); higher = more stable
# setupConditions: PBS, room temperature
Reply numerically in kcal/mol, unit not repeated.

folding stability dG lookup needed for A47M , thanks.
1.64

Which folding stability dG value is on record for L2T ?
0.594

Param item = D37A ; retrieve measured folding stability dG.
1.86

Data request, read-out folding stability dG, for F6N
0.361
